- Tested on: Mycobacterium tuberculosis
- EXPERIMENT_SUMMARY: Cornell - Phenotypic assay to identify agents that inhibit growth of Mycobacterium tuberculosis
- Assay type: functional
- Parameters: scale not given: direction of the effect not stated beside the values
- CONDITIONS_USED: 10 mM as filed; unlikely as a test dose
The campaign covered roughly 53,000 compounds. About 900 (1.7%) showed an effect of 50% or more. What follows is part of a selection rich in strong results, with near analogues and random picks from the rest.
PARAMETER: Percent Effect
# include the unit after the value

Take a look at these entries with their results.
COMPOUND | PARAMETER | EXPERIMENTAL_VALUE
Cc1cc(=O)n(CC(=O)Nc2ccc(Cl)cc2)nc1C | Percent Effect | 13.93%
NCc1n[nH]c(=O)n1-c1cccc(Cl)c1Cl | Percent Effect | -49.88%
CCn1cc(S(=O)(=O)NCC2(N3CCOCC3)CCCCC2)c(C)n1 | Percent Effect | -12.17%
CCc1nccn1C1CCCN(C(=O)c2cn3c(C)cccc3n2)C1 (stereo unspecified) | Percent Effect | 3.072%
Cc1cc(C2CCC2)nc(N2CCC3(CCNC(=O)CC3)CC2)n1 | Percent Effect | 19.37%

Return Percent Effect measured with Mycobacterium tuberculosis given this compound: "COc1ccc(NC(=O)Cn2nc(C)c(C)cc2=O)cc1Cl"
14.09%

---

Overview of recorded Percent Effect for various compounds
- Test system: Mycobacterium tuberculosis
- EXPERIMENT_SUMMARY: Cornell - Phenotypic assay to identify agents that inhibit growth of Mycobacterium tuberculosis
- Assay type: functional
- Design: scale not given: direction of the effect not stated beside the values
- CONDITIONS_USED: 10 mM as filed; unlikely as a test dose
About 900 (1.7%) of roughly 53,000 compounds showed an effect of 50% or more. The list comes from a sample in which strong results are over-represented; it also holds close analogues and randomly drawn compounds.
All answers are understood in %, so give the number only.

Reference set, count: 5
COMPOUND | Percent Effect, %
Cc1ccsc1CN(Cc1ccccn1)CC(C)C | -11.16
CCC(C)(CCO)NC(=O)c1ccon1 (centres undefined) | -22.18
Cc1ccsc1CN(CCN(C)C)Cc1ccccn1 | 3.624
COc1ccc(N(C(=O)c2cnc(C)cn2)C(C)C)cc1F | -10.07
Cc1nc(NCCc2ccccc2)cc(C(=O)N2CCCCC2)n1 | -12.22

Can you share its Percent Effect? I mean this compound: CCC(CN1CCCCC1)NC(=O)C1(c2cccc(F)c2)CC1.O=C(O)CC(O)(CC(=O)O)C(=O)O (centres undefined)
45.73

// repeat for Cc1nn(C)c(Cl)c1C1CCCN1Cc1noc(C2CC2)n1 (centres undefined) and report
-6.241

Further, for Cc1cnn(CC(C)NCc2csc(-c3cccs3)n2)c1 (centres undefined) ?
3.673

Repeat for the following compound: "CN1CC(=O)c2sc(NCCc3ccccc3)nc2C1"
-47.63

What about "COc1nn(C)c2c1CCCN(C(=O)c1cc[nH]n1)C2" ?
12.29

---

// Percent Effect lookup, one value per entry
- Tested on: Mycobacterium tuberculosis
- EXPERIMENT_SUMMARY: Cornell - Phenotypic assay to identify agents that inhibit growth of Mycobacterium tuberculosis
- Format: functional
- Set-up: scale not given: direction of the effect not stated beside the values
- CONDITIONS_USED: 10 mM as filed; unlikely as a test dose
Out of some 53,000 compounds screened, about 900 (1.7%) showed an effect of 50% or more. This is one part of a sample in which strong results are shown more often than they occur.
Give the value, in units of %, as a plain number.

// known answers, use as guide
COMPOUND | Percent Effect, %
CCc1noc(C(C)N2CCN(CC(C)C)CC2)n1 (stereo unspecified) | -14.43
O=C(c1cc[nH]n1)N1CCc2c(nc(N3CCCCC3)[nH]c2=O)C1 | 11.2

Any idea what Percent Effect was measured for "CCn1cncc1CNc1ccc(-c2nc(CC(C)C)no2)cn1" ?
11.21

And CC(O)CN1CC(C)(C)CN(C(=O)CCc2ccccc2)CC1=O (stereo unspecified) ?
4.925

Follow-up item: "CC(C)(Oc1ccc(F)cc1)C(=O)NCc1ccco1"
22.85

Moving on to "N[C@@H]1CCC[C@@H](Oc2ccc(F)cc2Oc2ccccc2)[C@@H]1O"
-14.7

---

- Tested on: Mycobacterium tuberculosis
- EXPERIMENT_SUMMARY: Cornell - Phenotypic assay to identify agents that inhibit growth of Mycobacterium tuberculosis
- Format: functional
- Design: scale not given: direction of the effect not stated beside the values
- CONDITIONS_USED: 10 mM as filed; unlikely as a test dose
Screen size: about 53,000 compounds; about 900 (1.7%) showed an effect of 50% or more. Shown is part of a subset that was picked to be rich in strong results.
PARAMETER: Percent Effect (%)
Output spec: scalar in %, unitless text.

COMPOUND | Percent Effect, %
Cc1cnc(N2C(=O)CSC2c2ccccc2)s1 (stereo not given) | 7.465
O=C(NC1CC1)C1(Cc2ccccc2-c2ccncc2)CCOCC1 | -4.384
Cc1cc(N(C)Cc2ccsc2)n2nc(C)c(C)c2n1 | 80.58
Cc1cc(N2CCC(CO)(CC3CCCCO3)CC2)nc2ccccc12 (stereo not given) | -1.855

Missing value: Percent Effect, Mycobacterium tuberculosis, entry OCC1(CC2CCCCO2)CCN(c2cnc3ccccc3n2)CC1 (stereo not given) . Fill in?
107

Also CC1CN(c2ccc(NC(=O)Cn3cccn3)cc2)CCO1 (stereo not given) ?
-5.599

And for "CCc1nnc(CN(C)c2cc(C)nc3c(C)c(C)nn23)o1" ?
-22.97

Now this one: Cc1ocnc1CNC(=O)Nc1ccc(N2CCOC(C)C2)cc1 (stereo not given)
104

Repeat for the following compound: Cc1nc(C)n(CC2CCCN(Cc3cccnc3)C2)n1 (stereo not given)
6.124

Moving on to the next compound: "Cc1csc(CN(C)c2cc(C)nc3c(C)c(C)nn23)n1"
39.72

---

- Test system: Mycobacterium tuberculosis
- EXPERIMENT_SUMMARY: Cornell - Phenotypic assay to identify agents that inhibit growth of Mycobacterium tuberculosis
- Assay type: functional
- Parameters: scale not given: direction of the effect not stated beside the values
- CONDITIONS_USED: 10 mM as filed; unlikely as a test dose
In all, about 53,000 compounds went through this assay and about 900 (1.7%) showed an effect of 50% or more. What follows is part of a selection rich in strong results, with near analogues and random picks from the rest.
Parameter: Percent Effect. Scope: all listed entries.
Report the value in % with no unit label.

Take a look at these entries with their results.
ENTRY_SMILES | UNIT_TEXT | Percent Effect
CCOc1cccc(COC(=O)c2ccc(Cl)cn2)n1 | % | 25.49
CN1N=C(C(=O)N2CCCCC2)S(=O)(=O)c2ccccc21 | % | -10.66

Reported Percent Effect, molecule "Cc1ccc(N2N=C(C(N)=O)S(=O)(=O)c3cccnc32)cc1" : ____
106.9

Input "CC(C)CCN1N=C(C(=O)N2CCCCCC2)S(=O)(=O)c2ccccc21"
8.314

Also "Cc1ccc(N2N=C(C(=O)O)S(=O)(=O)c3cccnc32)cc1" , if possible.
51.3

What about "CCOc1cccc(NC(=O)c2cc(C)on2)n1" ?
7.843

---

- Tested on: Mycobacterium tuberculosis
- EXPERIMENT_SUMMARY: Cornell - Phenotypic assay to identify agents that inhibit growth of Mycobacterium tuberculosis
- Type: functional
- Parameters: scale not given: direction of the effect not stated beside the values
- CONDITIONS_USED: 10 mM as filed; unlikely as a test dose
About 900 (1.7%) of roughly 53,000 compounds showed an effect of 50% or more. Many of the other results were omitted from the sample, so strong results are more common in it than they were.
// classify: if (Percent Effect < 10%) yes (1) else no (0)

COMPOUND | CLASS_LABEL
Cc1cc(NC(=O)CN2CCN(C3CCCC3)C(=O)C2)nn1C | no (0)
CN(c1ccc(CNc2ccc(Cl)cn2)cc1)S(C)(=O)=O | no (0)
COCc1nnc(C(=O)N2CCCC(O)C2)o1 (stereo unspecified) | yes (1)

Consider the compound "CCNC(=O)NC(=O)CNC(C)(C)c1ccc2c(c1)OCCO2" . Is its Percent Effect strictly less than 10%?
no (0)

Also, "Clc1ccc(CNc2ccc(Cl)cn2)cc1" please.
yes (1)

Follow-up entry: O=C(CCc1nnc(-c2ccsc2)o1)NCC1CCN(C2CC2)C1 (stereo unspecified)
yes (1)

---

- Test system: Mycobacterium tuberculosis
- EXPERIMENT_SUMMARY: Cornell - Phenotypic assay to identify agents that inhibit growth of Mycobacterium tuberculosis
- Format: functional
- Parameters: scale not given: direction of the effect not stated beside the values
- CONDITIONS_USED: 10 mM as filed; unlikely as a test dose
About 900 (1.7%) of roughly 53,000 compounds showed an effect of 50% or more. The sample as a whole holds a higher share of strong results than the screen did.
Entries and their Percent Effect values follow.
Field: numeric (%). Do not append units.

Recorded Percent Effect for "Fc1ccc(CNCCn2cccn2)cc1F" , please?
-21.78
